Tested on: DLD-1 BRCA2(−/−) cells
testDetails: Cell growth inhibition assay (CellTiter-Glo), DLD-1 BRCA2(−/−)
Format: cell-based
testConditions: Homo sapiens, DLD-1, 168 h; 200 cells/well, 7 days, CellTiter Glo 2.0; read-out: DLD-1 BRCA2(−/−) pEC50 (converted)
Reported values of log10 EC50 for individual entries
quantity: log10 EC50 (log10 of the value in nM)

molecule	log10 EC50
N#Cc1ccc(N2CCN(Cc3cnc4cc(C5CC5)c(=O)[nH]c4c3)CC2)nc1	0.40
CCc1cc2ncc(CN3CCN(c4cc(F)c(C#N)cc4F)CC3)cc2[nH]c1=O	-0.10
N#Cc1ccc(N2CCN(Cc3cnc4cc(C5CCCO5)c(=O)[nH]c4c3)CC2)nc1 (single isomer, unassigned)	1.60
CCc1nc2cc(F)c(CN3CCN(c4ccc(C#N)cn4)CC3)cc2[nH]c1=O	1.00
CCc1cc2ncc(CN3CCN(c4ccc(Br)cn4)CC3)cc2[nH]c1=O	0.80
Cc1cc2ncc(CN3CCN(c4ccc(C#N)cc4C#N)CC3)cc2[nH]c1=O	0.30
Cc1cc2ncc([C@@H](C)N3CCN(c4ccc(C#N)cn4)[C@H](C)C3)cc2[nH]c1=O (single isomer, unassigned)	1.80
CCc1cc2ncc(CN3CCN(c4ccc(C#N)cc4OC)CC3)cc2[nH]c1=O	0.30
[2H]C([2H])(c1cnc2cc(C(F)F)c(=O)[nH]c2c1)N1CCN(c2ccc(C#N)cn2)CC1	0.20
O=c1[nH]c2cc(CN3CCN(c4ccc(F)cn4)CC3)cnc2cc1C1CC1	1.00
Cc1nc2c(F)c(F)c(CN3CCN(c4ccc(C#N)cn4)CC3)cc2[nH]c1=O	1.80
Cc1c(Cl)c(=O)[nH]c2cc(CN3CCN(c4ccc(C#N)cc4)CC3)cnc12	0.20
C#Cc1cc2ncc(CN3CCN(c4ccc(C#N)nc4)CC3)cc2[nH]c1=O	1.80
Cc1cc2ncc(CN3CCN(c4cc(F)c(F)cn4)CC3)cc2[nH]c1=O	0.90
Cc1cc2ncc(CN3CCN(c4ccc(C#N)c(F)c4)CC3)cc2[nH]c1=O	0.40
CCc1cc2ncc(CN3CCN(c4ccc(F)nc4)CC3)cc2[nH]c1=O	1.70
N#Cc1ccc(N2CCN(Cc3cnc4cc(C(F)F)c(=O)[nH]c4c3)CC2)c(F)n1	0.20

---

measuredTarget: PARP1 (Homo sapiens)
Construct: made in house
testDetails: Biochemical fluorescent polarization (FP) assay, displacement of PARPi-FL, PARP1
Type: binding
testConditions: 20 nM protein, 3 nM PARPi-FL, 4 h at room temperature; read-out: FP PARP1 pIC50 (converted)
quantity: log10(IC50) (log10 of the value in nM)

molecule	quantity	recordedNumber
CCc1cc2ncc(CN3CCN(c4ccc(C#N)nc4)[C@@H]4C[C@@H]43)cc2[nH]c1=O (single isomer, unassigned)	log10(IC50)	0.70
Cc1cc(C#N)ccc1N1CCN(Cc2cnc3cc(C(F)F)c(=O)[nH]c3c2)CC1	log10(IC50)	1.40
CCc1cc2ncc(CN3CCN(c4ncc(C#N)cc4F)CC3)cc2[nH]c1=O	log10(IC50)	1.80
Cc1nc2c(F)cc(CN3CCN(c4ccc(C#N)cn4)CC3)cc2[nH]c1=O	log10(IC50)	1.00
Cc1cc2ncc(CN3CCN(c4ccc(C#N)nc4Cl)CC3)cc2[nH]c1=O	log10(IC50)	0.90
Cc1cc2ncc(CN3CCN(c4ccc(Cl)cc4C#N)CC3)cc2[nH]c1=O	log10(IC50)	1.30
CCc1cc2ncc(CN3CCC(c4ccc(C#N)cn4)CC3)cc2[nH]c1=O	log10(IC50)	0.70

---

Reported values of log10(EC50) for individual entries
System: DLD-1 BRCA2(−/−) cells
testDetails: Cell growth inhibition assay (CellTiter-Glo), DLD-1 BRCA2(−/−)
Type: cell-based
testConditions: Homo sapiens, DLD-1, 168 h; 200 cells/well, 7 days, CellTiter Glo 2.0; read-out: DLD-1 BRCA2(−/−) pEC50 (converted)
quantity: log10(EC50) (log10 of the value in nM)

compound	log10(EC50)
N#Cc1ccc(N2CCN(Cc3cnc4cc(Cl)c(=O)[nH]c4c3)CC2)c(Cl)n1	-0.10
Cc1cc2ncc([C@H](C)N3CCN(c4ccc(C#N)cn4)[C@H](C)C3)cc2[nH]c1=O (single isomer, unassigned)	1.80
CCc1cc2ncc(CN3CCC(c4ccc(C#N)cn4)CC3)cc2[nH]c1=O	0.70
CCc1cc2ncc(CN3CCN(c4ncc(F)cc4C#N)CC3)cc2[nH]c1=O	2.00
Cc1cc2ncc(CN3CCN(c4ccc(C#N)cc4)CC3)cc2[nH]c1=O	0.50
Cc1cc2ncc(CN3CCN(c4ccc(C#N)cc4F)CC3)cc2[nH]c1=O	0.50
CCc1cc2ncc(CN3CCN(c4ccc(F)cc4C#N)CC3)cc2[nH]c1=O	0.00
C[C@@H]1CN(Cc2cnc3cc(C4CC4)c(=O)[nH]c3c2)CCN1c1ccc(C#N)cn1	1.50

---

Reported values of IC50 for individual entries
measuredTarget: PARP1 (Homo sapiens, UniProt P09874)
Construct: made in house
Sequence (P09874 whole entry): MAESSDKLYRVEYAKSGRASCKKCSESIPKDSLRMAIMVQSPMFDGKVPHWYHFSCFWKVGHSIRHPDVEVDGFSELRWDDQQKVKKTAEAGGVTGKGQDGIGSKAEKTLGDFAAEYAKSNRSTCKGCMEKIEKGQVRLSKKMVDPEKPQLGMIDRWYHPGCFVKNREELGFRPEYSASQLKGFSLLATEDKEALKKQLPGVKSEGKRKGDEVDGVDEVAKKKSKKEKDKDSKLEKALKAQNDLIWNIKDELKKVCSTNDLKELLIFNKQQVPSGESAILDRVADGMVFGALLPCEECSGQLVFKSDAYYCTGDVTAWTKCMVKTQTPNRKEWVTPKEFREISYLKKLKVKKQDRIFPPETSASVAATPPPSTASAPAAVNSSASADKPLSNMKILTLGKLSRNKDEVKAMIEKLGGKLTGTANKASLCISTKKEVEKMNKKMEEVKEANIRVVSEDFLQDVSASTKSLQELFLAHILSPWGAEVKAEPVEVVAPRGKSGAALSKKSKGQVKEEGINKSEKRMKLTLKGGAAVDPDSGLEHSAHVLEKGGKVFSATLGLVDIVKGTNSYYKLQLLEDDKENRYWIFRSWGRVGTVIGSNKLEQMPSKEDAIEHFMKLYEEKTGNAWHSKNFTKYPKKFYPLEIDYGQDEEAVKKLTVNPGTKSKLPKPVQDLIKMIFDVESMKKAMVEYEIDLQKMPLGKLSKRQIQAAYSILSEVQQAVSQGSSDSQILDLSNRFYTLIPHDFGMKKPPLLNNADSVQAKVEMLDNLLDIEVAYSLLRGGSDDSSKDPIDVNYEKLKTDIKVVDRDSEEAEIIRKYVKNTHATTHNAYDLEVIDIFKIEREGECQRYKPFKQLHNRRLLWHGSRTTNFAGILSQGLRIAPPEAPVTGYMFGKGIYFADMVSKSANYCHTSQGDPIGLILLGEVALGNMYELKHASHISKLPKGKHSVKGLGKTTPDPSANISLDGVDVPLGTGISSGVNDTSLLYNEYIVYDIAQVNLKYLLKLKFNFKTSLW
testDetails: Biochemical fluorescent polarization (FP) assay, displacement of PARPi-FL, PARP1
Type: binding
testConditions: 20 nM protein, 3 nM PARPi-FL, 4 h at room temperature; read-out: FP PARP1 pIC50 (converted)
quantity: IC50 (nM)

molecule	recordedNumber
C[C@@H]1CN(Cc2cnc3cc(C4CC4)c(=O)[nH]c3c2)CCN1c1ccc(F)cn1	7.94
N#Cc1ccc(N2CCN(Cc3cnc4cc(Cl)c(=O)[nH]c4c3)CC2)nc1	5.01
Cc1cc2ncc(CN3CCN(c4ccc(C#N)c(F)c4)CC3)cc2[nH]c1=O	10
Cc1cc2ncc(CN3CCN(c4cc(F)c(F)cc4C#N)CC3)cc2[nH]c1=O	12.6
Cc1cc2ncc([C@H](C)N3CCN(c4ccc(C#N)cn4)CC3)cc2[nH]c1=O (single isomer, unassigned)	3.98
CCc1nc2cc(F)c(CN3CCN(c4ccc(C#N)cn4)CC3)cc2[nH]c1=O	7.94
Cc1cc2ncc(CN3CCN(c4ccc(C#N)nc4)CC3)cc2[nH]c1=O	10
CCc1cc2ncc(CN3CCN(c4ccc(F)cc4C#N)CC3)cc2[nH]c1=O	6.31
Cc1cc2ncc(CN3CCN(c4cc(F)c(F)cn4)CC3)cc2[nH]c1=O	12.6

---

System: DLD-1 BRCA2(−/−) cells
testDetails: Cell growth inhibition assay (CellTiter-Glo), DLD-1 BRCA2(−/−)
Type: cell-based
testConditions: Homo sapiens, DLD-1, 168 h; 200 cells/well, 7 days, CellTiter Glo 2.0; read-out: DLD-1 BRCA2(−/−) pEC50 (converted)
Reported values of log10 EC50 for individual entries
quantity: log10 EC50 (log10 of the value in nM)

compound	log10 EC50
Cc1cc2ncc(CN3CCN(c4ccc(F)cc4C#N)CC3)cc2[nH]c1=O [Example 35]	0.50
Cc1cc2ncc(CN3CCN(c4ccc(Cl)cc4C#N)CC3)cc2[nH]c1=O [Example 51]	0.60
Cc1cc2c(F)cc(CN3CCN(c4ccc(C#N)cn4)CC3)cc2[nH]c1=O [Example 79]	0.90
N#Cc1ccc(N2CCN(Cc3cnc4cc(C5CC5)c(=O)[nH]c4c3)[C@H]3C[C@H]32)nc1 (single isomer, unassigned) [Example 20]	1.70
CCc1cc2ncc(CN3CCN(c4ncc(C#N)cc4F)CC3)cc2[nH]c1=O [Example 54]	1.80
O=c1[nH]c2cc(CN3CCN(c4ccc(F)cn4)CC3)cnc2cc1Cl [Example 47]	0.40
C[C@@H]1CN(Cc2cnc3cc(C4CC4)c(=O)[nH]c3c2)CCN1c1ccc(F)cn1 [Example 22]	2.10
N#Cc1ccc(N2CCN(Cc3cnc4cc(Cl)c(=O)[nH]c4c3)CC2)c(F)n1 [Example 61]	0.50

---

System: DLD-1 BRCA2(−/−) cells
testDetails: Cell growth inhibition assay (CellTiter-Glo), DLD-1 BRCA2(−/−)
Type: cell-based
testConditions: Homo sapiens, DLD-1, 168 h; 200 cells/well, 7 days, CellTiter Glo 2.0; read-out: DLD-1 BRCA2(−/−) pEC50 (converted)
Reported values of EC50 for individual entries
quantity: EC50 (nM)

compound	measuredTarget	quantity	recordedNumber
N#Cc1ccc(N2CCN(Cc3cnc4cc(Cl)c(=O)[nH]c4c3)CC2)c(F)c1	DLD-1 BRCA2(−/−) cells	EC50	5.01
Cc1cc(C#N)ccc1N1CCN(Cc2cnc3cc(C(F)F)c(=O)[nH]c3c2)CC1	DLD-1 BRCA2(−/−) cells	EC50	0.631
[2H]C([2H])(c1cnc2cc(CC)c(=O)[nH]c2c1)N1CCN(c2ccc(F)cc2C#N)CC1	DLD-1 BRCA2(−/−) cells	EC50	1.58
CCc1cc2ncc(CN3CCN(c4ccc(Cl)cn4)CC3)cc2[nH]c1=O	DLD-1 BRCA2(−/−) cells	EC50	5.01
Cc1cc2ncc([C@@H](C)N3CCN(c4ccc(C#N)cn4)CC3)cc2[nH]c1=O (single isomer, unassigned)	DLD-1 BRCA2(−/−) cells	EC50	3.16
N#Cc1ccc(N2CCN(Cc3cnc4cc(C(F)F)c(=O)[nH]c4c3)CC2)nc1	DLD-1 BRCA2(−/−) cells	EC50	1
CCc1cc2ncc(CN3CCN(c4ccc(C#N)cn4)CC3)cc2[nH]c1=O	DLD-1 BRCA2(−/−) cells	EC50	0.794
Cc1cc2ccc(CN3CCN(c4ccc(C#N)cn4)CC3)c(F)c2[nH]c1=O	DLD-1 BRCA2(−/−) cells	EC50	12.6
